Molecular target: NLRP3 (Homo sapiens)
Construct: Seed THP-1 cells (25,000 cells/well) containing 1.0 μg/ml LPS in 40 μl of RPMI medium
Sequence (Q96P20 whole entry): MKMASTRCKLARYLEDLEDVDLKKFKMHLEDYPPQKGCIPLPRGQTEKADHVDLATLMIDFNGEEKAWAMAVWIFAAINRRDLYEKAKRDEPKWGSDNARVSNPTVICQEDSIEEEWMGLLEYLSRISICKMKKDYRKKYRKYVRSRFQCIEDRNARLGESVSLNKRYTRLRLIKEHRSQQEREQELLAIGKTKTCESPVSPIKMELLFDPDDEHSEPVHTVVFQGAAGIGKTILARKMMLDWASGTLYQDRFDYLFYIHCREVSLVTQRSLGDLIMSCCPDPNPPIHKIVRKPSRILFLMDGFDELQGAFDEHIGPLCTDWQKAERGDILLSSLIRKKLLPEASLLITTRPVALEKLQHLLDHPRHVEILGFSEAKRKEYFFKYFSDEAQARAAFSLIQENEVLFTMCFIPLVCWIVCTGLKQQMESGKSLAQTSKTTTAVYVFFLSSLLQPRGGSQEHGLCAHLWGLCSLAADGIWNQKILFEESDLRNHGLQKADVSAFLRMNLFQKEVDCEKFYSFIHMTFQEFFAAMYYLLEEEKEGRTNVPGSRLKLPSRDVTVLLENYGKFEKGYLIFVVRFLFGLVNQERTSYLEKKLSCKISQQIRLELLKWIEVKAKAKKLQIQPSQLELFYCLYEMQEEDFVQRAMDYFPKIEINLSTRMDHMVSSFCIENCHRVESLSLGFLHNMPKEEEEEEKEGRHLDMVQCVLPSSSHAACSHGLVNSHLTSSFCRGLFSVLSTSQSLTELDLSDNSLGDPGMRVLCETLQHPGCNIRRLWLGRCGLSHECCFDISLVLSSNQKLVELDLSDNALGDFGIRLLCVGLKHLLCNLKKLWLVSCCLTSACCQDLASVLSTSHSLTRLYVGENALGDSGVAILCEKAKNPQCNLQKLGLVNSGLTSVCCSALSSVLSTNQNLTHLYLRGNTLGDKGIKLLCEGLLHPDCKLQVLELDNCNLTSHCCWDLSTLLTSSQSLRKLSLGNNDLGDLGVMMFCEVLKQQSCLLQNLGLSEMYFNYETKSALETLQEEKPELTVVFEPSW
Assay: THP-1 cells pyroptosis assay
Details: LPS 1 μg/ml, compound 3 hrs, nigericin 5 μM 1 hr, resazurin readout
pIC50: −log10 of the molar value. Structures can show the parent of a compound that is named as a salt.
measured.endpoint: pIC50

compound: COc1cc(-c2cc(F)cc(C(C)C)c2CC(=O)NS(=O)(=O)c2c(C)nn(C(C)C)c2C)ccn1
pIC50: ≥ 5.30
//
compound: COc1cc(-c2cc(F)cc(C(C)C)c2C(F)C(=O)NS(=O)(=O)c2cc(C(C)(C)O)co2)ccn1 (stereo not shown)
pIC50: ≥ 5.00
//
compound: COc1cc(-c2cc(F)cc(C(C)C)c2CC(=O)NS(=O)(=O)c2cc(C(C)(C)O)c(C)s2)ccn1
pIC50: ≥ 6.30
//
compound: COc1cc(-c2cc(F)cc(C(C)C)c2CC(=O)NS(=O)(=O)c2ccc(Br)cc2C(F)(F)F)ccn1
pIC50: ≥ 5.30
//
compound: COc1cc(-c2cc(F)cc(C(C)C)c2CC(=O)NS(=O)(=O)c2cc(C(C)(C)O)n(C(C)C)n2)ccn1
pIC50: ≥ 5.00

Ask: Endpoint output: pIC50 of Cc1cc(C(C)(C)O)ccc1S(=O)(=O)NC(=O)Cc1c(-c2ccncc2)cc(F)cc1C(C)C . Value?
Reply: ≥ 6.30

Ask: Fill blank: measured pIC50 of the compound CCN(CC)CCCS(=O)(=O)NC(=O)Cc1c(-c2ccnc(OC)c2)cc(F)cc1C(C)C [Example 57, potassium salt] is ____.
Reply: ≥ 5.30
